# Test system: Staphylococcus aureus
# EXPERIMENT SUMMARY: Antibacterial activity against Staphylococcus aureus MTCC 1430 at 250 ug/ml after 48 hr by cup-plate method
# Format: functional
# ASSAY CONTEXT: MTCC 1430, 48 h, read-out: DIZ
OBSERVABLE: zone of inhibition at 250 µg/mL (mm)
Numbers only here, please. The scale is mm.

The cases that follow already have their zone of inhibition at 250 µg/mL on record.
Fill in the blank: the reported zone of inhibition at 250 µg/mL of NC(=S)N1N=C(c2cccc3ccccc23)CC1c1ccc([N+](=O)[O-])cc1 (stereo not given) is ____.
9

Fill in the blank: the reported zone of inhibition at 250 µg/mL of O=[N+]([O-])c1ccc(C2CC(c3cccc4ccccc34)=NN2c2ccc([N+](=O)[O-])cc2)cc1 (stereo not given) is ____.
9

Fill in the blank: the reported zone of inhibition at 250 µg/mL of O=[N+]([O-])c1ccc(C2CC(c3cccc4ccccc34)=NN2)cc1 (stereo not given) is ____.
10

Fill in the blank: the reported zone of inhibition at 250 µg/mL of O=[N+]([O-])c1ccc(C2CC(c3cccc4ccccc34)=NN2c2ccccc2)cc1 (stereo not given) is ____.
10

More entries:
Fill in the blank: the reported zone of inhibition at 250 µg/mL of O=[N+]([O-])c1ccc(C2CC(c3cccc4ccccc34)=NN2c2ccccc2[N+](=O)[O-])cc1 (stereo not given) is ____.
9

All values here come from ChEMBL document CHEMBL3044945.
